# Papp at 1.5 h listing for each entry below
Experiment: Apparent permeability across RRCK cells after 1.5 hrs
Type: ADME, cell-based, Canis lupus familiaris, MDCKII-LE
Details: dog, MDCK
The response must be a number in ×10⁻⁶ cm/s with no trailing unit.

Recorded results for 3 compounds are shown here.
[[record]]
smiles_structure = "Cc1nn2c(-c3c(CO)nn(C)c3-c3ccc(Cl)cc3)nc(C)c2c(=O)[nH]1"
readout_label = "Papp at 1.5 h"
unit = "×10⁻⁶ cm/s"
numeric_readout = 19

[[record]]
smiles_structure = "Cc1nn2c(-c3c(C)n[nH]c3-c3ccc(C(F)(F)F)cc3)nc(C(F)F)c2c(=O)[nH]1"
readout_label = "Papp at 1.5 h"
unit = "×10⁻⁶ cm/s"
numeric_readout = 10

[[record]]
smiles_structure = "Cc1nn2c(-c3c(C)nn(C)c3-c3ccc(C(F)(F)F)cc3)nc(CO)c2c(=O)[nH]1"
readout_label = "Papp at 1.5 h"
unit = "×10⁻⁶ cm/s"
numeric_readout = 8.3


The reported Papp at 1.5 h of the compound COc1ccc(-c2[nH]nc(C)c2-c2nc(C)c3c(=O)[nH]c(C)nn23)cn1 was 1.1

# compound Cc1nn2c(-c3c(C(=O)O)nn(C)c3-c3ccc(C(F)(F)F)c(C)c3)nc(C)c2c(=O)[nH]1 ; its Papp at 1.5 h = 53

Notebook: COc1ccc(-c2c(-c3nc(CO)c4c(=O)[nH]c(C)nn34)c(C)nn2C)cn1 , Papp at 1.5 h read as 0.76

Papp at 1.5 h recorded for this compound, Cc1nn2c(-c3c(CO)nn(C)c3-c3ccc(C(F)(F)F)c(CO)c3)nc(C)c2c(=O)[nH]1 , is 0.55

* * *

Known hepatocyte CLint at 1 µM of a selection of compounds
Assay: Intrinsic clearance in human hepatocytes assessed per million cells at 1 uM after 0.5 to 4 hrs by HPLC-HRMS method
Format: ADME, cell-based, Hepatocyte
Conditions: human hepatocytes, read-out: CLH
Give just the number in µL/min/1e6 cells; leave the unit off.

[[record]]
compound = "COc1ccc(Cc2nn3c([C@@H](CCC(O)c4ccccc4)[C@H](C)O)nc(C)c3c(=O)[nH]2)cc1OC (stereo in doubt)"
unit = "µL/min/1e6 cells"
numeric_readout = 11

[[record]]
compound = "COc1ccc(Cc2nn3c([C@@H](CC(O)C(O)c4ccccc4)[C@@H](C)O)nc(C)c3c(=O)[nH]2)cc1OC (some centres not stated)"
unit = "µL/min/1e6 cells"
numeric_readout = 2.4

[[record]]
compound = "COc1ccc(Cc2nn3c([C@@H](CCC(O)c4ccccc4)[C@@H](C)O)nc(C)c3c(=O)[nH]2)cc1O (some centres not stated)"
unit = "µL/min/1e6 cells"
numeric_readout = 12


COCc1nc(-c2c(C)nn(C)c2-c2ccc(C(F)(F)F)cc2)n2nc(C)[nH]c(=O)c12 yielded hepatocyte CLint at 1 µM of 4.7

The reported hepatocyte CLint at 1 µM of the compound Cc1nn2c(-c3c(C)nn(C)c3-c3ccc(Cl)cc3)nc(C)c2c(=O)[nH]1 was 32

hepatocyte CLint at 1 µM reading for Cc1nc(-c2cnn3c2CN(CC2CCCC2)CC3)c2c(=O)[nH]cnn12 : 16

Measured hepatocyte CLint at 1 µM of Cc1nn2c(-c3c(C)nn(C)c3-c3ccc(C(F)(F)F)c(C)c3)nc(C)c2c(=O)[nH]1 : 19
